Source of measurements: patent US20210301021A1

Target: T1, human CTLA4-Fc recombinant protein (human, UniProt P16410 36-161)
T1 construct: not shown: Fc part
T1 sequence (looked up): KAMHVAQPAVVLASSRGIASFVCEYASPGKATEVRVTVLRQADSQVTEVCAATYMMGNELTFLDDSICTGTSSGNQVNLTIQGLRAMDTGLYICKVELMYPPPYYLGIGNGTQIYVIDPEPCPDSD
Experiment: kinetics of the prokaryotic expression product, analyte CTLA4/Fc, 1:1 binding model
Reported Kd values follow for various binders

{"BINDER": "AH01704 (prokaryotic expression antibody product, 5BM library) (Fab, V domains shown, Prokaryotic expression product from Phage-Fab / FASEBA-Fab plasmids) VH: QVQLVQSGAEVVKPGASVKVSCKASGYTFTSYWINWVKQAPGQGLEWMGRIAPGSGTTYYNEMFTGRVTLTRDTSTSTAYMELSSLRSEDTAVYFCARGDYFDYWGQGTMVTVSS VL: DIQLTQSPSFLSASVGDRVTITCSASKSVSYIHWYQQKPGKAPKLLIYDTSTLASGVPSRFSGSGSGTEYTLTISSLQPEDFATYYCQQRTTYPLTFGQGTKLEIK", "Kd, pM": 0.019}
{"BINDER": "AH01679 (prokaryotic expression antibody product, 5BM library) (Fab, V domains shown, Prokaryotic expression product from Phage-Fab / FASEBA-Fab plasmids) VH: QVQLVQSGAEVVKPGASVKLSCKASGYTFTSYWINWVRQAPGQGLEWIGRIAPGSGTTYYNEMFTGRVTMTRDTSTSTVYMELSSLRSEDTAVYYCARGDYFDYWGQGTMVTVSS VL: DIQLTQSPSFLSASVGDRVTITCSASKSVSYIHWYQQKPGKAPKLLIYDTSTLASGVPSRFSGSGSGTEFTLTISSLQPEDFATYYCQQRTTYPLTFGQGTKLEIK", "Kd, pM": 0.0431}
{"BINDER": "AH01696 (prokaryotic expression antibody product, 5BM library) (Fab, V domains shown, Prokaryotic expression product from Phage-Fab / FASEBA-Fab plasmids) VH: VQLVQSGAEVVKPGASVKVSCKASGYTFTSYWINWIRQAPGQGLEWIGRIAPGSGTTYYNEMFTGRVTLTRDTSTSTAYMELSSLRSEDTAVYYCARGDYFDYWDQGTMVTVSS VL: DIQLTQSPSFLSASVGDRVTITCSASKSVSYIHWFQQKPGKAPKLLIYDTSTLASGVPSRFSGSGSGTEYTLTISSLQPEDFATYYCQQRTTYPLTFGQGTKLEIK", "Kd, pM": 0.00373}
